test system: MOLT-4 leukemia; test: NCI tumour cell line growth inhibition, 48 h
Quantity Name: TGI

- Compound: "CCn1sc2ccccc2c1=O"
  Quantity Name: "TGI"
  Experimental Value: "> 100 µM"
- Compound: "CN(CCO)c1ccc(N2Cc3ccccc3OC3=C2C(=O)c2c(O)ccc(O)c2C3=O)cn1"
  Quantity Name: "TGI"
  Experimental Value: "1.19 µM"
- Compound: "O=C1c2ccccc2-c2c1c1ccccc1c(=O)n2CCCCl"
  Quantity Name: "TGI"
  Experimental Value: "4.38 µM"
- Compound: "CC1(C)CC(=O)C(C=NC(=O)c2ccncc2)=C(O)C1"
  Quantity Name: "TGI"
  Experimental Value: "> 100 µM"
- Compound: "CCC(C)C1NC(=O)C(NC(=O)c2c3[nH]c4c(C(=O)NC5C(=O)NC(C(C)CC)C(=O)N6CCCC6C(=O)N(C)CC(=O)N(C)C(C(C)C)C(=O)OC5C)ccc(C)c4oc-3c(C)c(=O)c2=O)C(C)OC(=O)C(C(C)C)N(C)C(=O)CN(C)C(=O)C2CCCN2C1=O (stereo unspecified)"
  Quantity Name: "TGI"
  Experimental Value: "> 39.8 µM"

Could you now consider this next compound?
Given item `CCCCCCOc1ccc(Nc2c(O)c3c(c(O)c2Cl)C(=O)C=CC3=O)cc1` , the value recorded as its TGI is > 6.98 µM

---

system: U251 CNS; assay: NCI tumour cell line growth inhibition, 48 h
Each entry below lists one item and its recorded TGI value.

- Compound: "COc1cc2c(OC)cc1CSCc1sc(C)c(c1Br)CSC2"
  TGI: "> 100 µM"
- Compound: "O=S1(=O)Cc2ccc3c4c2-c2c(ccc5ccc(c-4c25)CS(=O)(=O)C3)C1"
  TGI: "> 100 µM"
- Compound: "Cc1nc(-[n+]2nc(-c3ccncc3)nn2-c2ccccc2)sc1C"
  TGI: "> 100 µM"
- Compound: "Cc1cc(C)c(C(=O)c2nnc3ccccc3c2N)c(C)c1"
  TGI: "> 100 µM"
- Compound: "O=C(N[C@@H](c1ccccc1)[C@@H](O)C(=O)OCc1ccc([N+](=O)[O-])cc1)c1ccccc1"
  TGI: "> 100 µM"
- Compound: "O=C(O/C=C\\OC1CCCC1(c1ccccc1)c1ccccc1)c1ccccc1 (stereo unspecified)"
  TGI: "12.4 µM"
- Compound: "COc1cc(N=Nc2cccc(S(=O)(=O)O)c2)ccc1N=Nc1ccc(/C=C/c2ccc(-n3on3-c3ccc(/C=C/c4ccc(N=Nc5ccc(N=Nc6cccc(S(=O)(=O)O)c6)cc5OC)cc4S(=O)(=O)O)c(S(=O)(=O)O)c3)cc2S(=O)(=O)O)c(S(=O)(=O)O)c1"
  TGI: "> 100 µM"
- Compound: "Cc1nn(C(=O)c2ccc(Cl)cc2)c2c1C(/C=C/c1ccccc1)SC(N)=N2 (stereo unspecified)"
  TGI: "> 10 µM"
- Compound: "CC(C)C(=O)Nc1nc2c(ncn2C2OC(CO)C(O)C2O)c(=O)[nH]1 (stereo unspecified)"
  TGI: "> 100 µM"
- Compound: "CCN(Cc1ccccc1C)c1ccc(CO)c(Cl)c1"
  TGI: "17.1 µM"

Next, consider the following compound.
U251 CNS data for `NC(=O)c1cc(S(=O)(=O)Nc2nnc(-c3ccccc3)c(-c3ccccc3)n2)c(SCc2ccccc2)cc1Cl` ; its TGI: > 100 µM

Data provenance is PubChem BioAssay (NCI).
